# system tested: GDP-bound KRAS protein (aa 1-169), containing both G12D and C118A amino acid substitutions (Homo sapiens, UniProt P01116, C118A/G12D)
# Sequence (P01116 1-169 isoform P01116-2 G12D/C118A): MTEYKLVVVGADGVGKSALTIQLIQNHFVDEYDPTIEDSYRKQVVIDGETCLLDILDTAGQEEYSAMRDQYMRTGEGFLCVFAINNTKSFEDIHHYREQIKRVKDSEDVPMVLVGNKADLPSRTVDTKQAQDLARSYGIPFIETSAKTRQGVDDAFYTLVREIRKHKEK
# experimental details: KRAS G12D Coupled Nucleotide Exchange Assay
# Assay type: biochemical
attribute measured: IC50 (nM)

molecule	attribute measured	measurement
CCc1c(F)ccc2cc(O)cc(-c3c(N)cc4c(N5CCCOCC5)nc(OC[C@@]56CCCN5C[C@H](F)C6)nc4c3F)c12 [Example 46]	IC50	36
CCc1c(F)ccc2cc(O)cc(-c3c(F)cc4c(N5CCC[C@]6(CCO6)C5)nc(OC[C@@]56CCCN5C[C@H](F)C6)nc4c3F)c12 (single isomer, unassigned) [Example 90]	IC50	3
CCc1c(F)ccc2cc(O)cc(-c3c(F)cc4c(N5CCOCC(C)(O)C5)nc(OC[C@@]56CCCN5C[C@H](F)C6)nc4c3F)c12 (single isomer, unassigned) [Example 35]	IC50	43

[A] Oc1cc(-c2ccc3c(N4CCCOCC4)nc(OCC45CCCN4CCC5)nc3c2F)c2ccccc2c1 [Example 43]
[B] CCc1c(F)ccc2cc(O)cc(-c3c(F)cc4c(N5CCC[C@]6(COC(=O)O6)C5)nc(OC[C@@]56CCCN5C[C@H](F)C6)nc4c3F)c12 (single isomer, unassigned) [Example 93]
Form field 'greater IC50' accepts A or B ; which applies? Refer to your chosen entry by its label in the reply. A

[A] CCc1cccc2cc(O)cc(-c3ccc4c(N5CCOCC(C)(O)C5)nc(OC[C@@]56CCCN5C[C@H](F)C6)nc4c3F)c12 (single isomer, unassigned) [Example 30]
[B] CCc1c(F)ccc2cc(O)cc(-c3c(O)cc4c(N5CCC[C@@](C)(O)C5)nc(OC[C@@]56CCCN5C[C@H](F)C6)nc4c3F)c12 (single isomer, unassigned) [Example 27]
Rank A against B by their IC50 values and give the higher one. Let me know the label of the one you choose. A

[I] CCc1c(F)ccc2cc(O)cc(-c3ccc4c(N5CCC[C@@](C)(O)C5)nc(OC[C@@]56CCCN5C[C@H](F)C6)nc4c3F)c12 [Example 1]
[II] CCc1c(F)ccc2cc(O)cc(-c3c(O)cc4c(N5CCC[C@@](C)(O)C5)nc(OC[C@@]56CCCN5C[C@H](F)C6)nc4c3F)c12 (single isomer, unassigned) [Example 28]
Which has the higher IC50, I or II ? Give the chosen item's label as your response. II
(II: 302 nM, I: 3 nM)

====

# system tested: GDP-bound KRAS protein (aa 1-169), containing both G12D and C118A amino acid substitutions (Homo sapiens, UniProt P01116, C118A/G12D)
# experimental details: KRAS G12D Coupled Nucleotide Exchange Assay
# Format: biochemical
attribute measured: IC50 (nM)

molecule	IC50 / nM
C/C=C\c1c(Cl)cc2[nH]ncc2c1-c1ccc2c(N3CCC[C@@](C)(O)C3)nc(OCC3(CN(C)C)CC3)nc2c1F [Example 115]	9
Cc1cc2[nH]ncc2c(-c2c(F)cc3c(N4CCC[C@@](C)(O)C4)nc(OC[C@@]45CCCN4C[C@H](F)C5)nc3c2F)c1[C@H]1C[C@H]1C (atropisomer, axis not shown; (aS)) [Example 121]	6
CCc1c(F)ccc2cc(N)cc(-c3c(F)cc4c(N5CCCC6(CCO6)C5)nc(OC[C@@]56CCCN5C[C@H](F)C6)nc4c3F)c12 (stereo partly shown) [Example 75]	9

[P] Cc1cc2[nH]ncc2c(-c2c(F)cc3c(N4CCC[C@](O)(CF)C4)nc(OC[C@@]45CCCN4C[C@H](F)C5)nc3c2F)c1C1CC1 (single isomer, unassigned) [Example 100]
[Q] C/C=C\c1c(Cl)cc2[nH]ncc2c1-c1c(F)cc2c(N3CCOC[C@@](C)(O)C3)nc(OC[C@@]34CCCN3C[C@H](F)C4)nc2c1F [Example 103]
[R] CCc1c(F)ccc2cc(O)cc(-c3c(F)cc4c(N5CCOCC(F)(F)C5)nc(OC[C@@]56CCCN5C[C@H](F)C6)nc4c3F)c12 [Example 37]
[S] C/C=C\c1c(Cl)cc2[nH]ncc2c1-c1ccc2c(N3CCC[C@]4(CCO4)C3)nc(OC[C@@]34CCCN3C[C@H](F)C4)nc2c1F [Example 116]
Please order the records by their reported IC50, lowest number first. Write the labels out in the order the request specifies. S, P, Q, R

[A] CCc1c(F)ccc2cccc(-c3ccc4c(N5CCCC6(CNC(=O)O6)C5)nc(OC[C@@]56CCCN5C[C@H](F)C6)nc4c3F)c12 (stereo partly shown) [Example 85]
[B] Oc1cc(-c2c(F)cc3c(N4CCC[C@]5(CCO5)C4)nc(OC[C@@]45CCCN4C[C@H](F)C5)nc3c2F)c2c(Cl)c(F)ccc2c1 [Example 78]
[C] C#Cc1cccc2cc(O)cc(-c3c(F)cc4c(N5CCC[C@@](C)(O)C5)nc(OC[C@@]56CCCN5C[C@H](F)C6)nc4c3F)c12 (single isomer, unassigned) [Example 12]
[D] CC1(O)COCCN(c2nc(OC[C@@]34CCCN3C[C@H](F)C4)nc3c(F)c(-c4cc(O)cc5ccc(F)c(F)c45)ccc23)C1 (single isomer, unassigned) [Example 31]
Thanks in advance: please rank these 4 entries by IC50, highest to lowest. Answer format: list of labels, ordered as asked. A, B, D, C

[a] Cc1cc2[nH]ncc2c(-c2ccc3c(N4CCC[C@](O)(CF)C4)nc(OC[C@@]45CCCN4C[C@H](F)C5)nc3c2F)c1[C@H]1C[C@H]1C (atropisomer, axis not shown; (aS)) [Example 118]
[b] CCc1c(F)ccc2cc(O)cc(-c3ccc4c(N5CCC(C(N)=O)C5)nc(OC[C@@]56CCCN5C[C@H](F)C6)nc4c3F)c12 (stereo partly shown) [Example 8]
[c] C/C=C\c1c(Cl)cc2[nH]ncc2c1-c1ccc2c(N3CCCC4(CNC(=O)O4)C3)nc(OC[C@@]34CCCN3C[C@H](F)C4)nc2c1F (stereo partly shown) [Example 117]
# desc sort on IC50 across 3 molecules As an answer, provide the labels arranged in the order called for. b, a, c
(b: 11 nM, a: 4 nM, c: 2 nM)

[I] CCc1c(F)ccc2cc(O)cc(-c3c(Cl)cc4c(N5CCC[C@@](C)(O)C5)nc(OC[C@@]56CCCN5C[C@H](F)C6)nc4c3F)c12 [Example 25]
[II] CCc1c(F)ccc2cc(O)cc(-c3c(F)cc4c(N5CCC[C@]6(C5)C[C@@H](O)C6)nc(OC[C@@]56CCCN5C[C@H](F)C6)nc4c3F)c12 (single isomer, unassigned) [Example 91]
Pick one: I or II . Which one has the lower reported IC50? I would appreciate it if you answered with the label of your choice. II
(II: 3 nM, I: 5 nM)

====

# system tested: His-tagged KRAS G12D protein (Homo sapiens, UniProt P01116, G12D)
# Sequence (P01116 1-188 isoform P01116-2 G12D): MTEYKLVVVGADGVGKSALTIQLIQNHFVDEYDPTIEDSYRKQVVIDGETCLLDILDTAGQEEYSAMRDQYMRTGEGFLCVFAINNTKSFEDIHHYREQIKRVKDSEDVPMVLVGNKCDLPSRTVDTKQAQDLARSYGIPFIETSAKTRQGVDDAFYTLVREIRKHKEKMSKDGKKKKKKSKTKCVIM
# experimental details: KRAS G12D TR-FRET Assay
pIC50: −log10 of the molar value.
attribute measured: pIC50

compound	system tested	pIC50
CCc1c(F)ccc2cc(O)cc(-c3c(F)cc4c(N5[C@H]6CCC(O)[C@@H]5CC6)nc(OC[C@@]56CCCN5C[C@H](F)C6)nc4c3F)c12 (mixture of isomers) [Example 55]	His-tagged KRAS G12D protein (Homo sapiens, UniProt P01116, G12D)	7.68
C/C=C\c1c(Cl)cc2[nH]ncc2c1-c1c(F)cc2c(N3CCC[C@](O)(CF)C3)nc(OC[C@@]34CCCN3C[C@H](F)C4)nc2c1F (single isomer, unassigned) [Example 101]	His-tagged KRAS G12D protein (Homo sapiens, UniProt P01116, G12D)	8.30
CCc1c(F)ccc2cc(O)cc(-c3ccc4c(N5CCCC6(CNC(=O)C6)C5)nc(OC[C@@]56CCCN5C[C@H](F)C6)nc4c3F)c12 (stereo partly shown) [Example 53]	His-tagged KRAS G12D protein (Homo sapiens, UniProt P01116, G12D)	8.52
CCc1c(F)ccc2cc(N)cc(-c3c(F)cc4c(N5CCCC6(CCO6)C5)nc(OC[C@@]56CCCN5C[C@H](F)C6)nc4c3F)c12 (stereo partly shown) [Example 75]	His-tagged KRAS G12D protein (Homo sapiens, UniProt P01116, G12D)	6.81
C#Cc1c(F)ccc2cc(O)cc(-c3ccc4c(N5CC6CC(O)C(C6)C5)nc(OC[C@@]56CCCN5C[C@H](F)C6)nc4c3F)c12 (single isomer, unassigned) [Example 17]	His-tagged KRAS G12D protein (Homo sapiens, UniProt P01116, G12D)	7.96

[I] C/C=C\c1c(Cl)cc2[nH]ncc2c1-c1ccc2c(N3CCC[C@@](C)(O)C3)nc(OCC3(CN(C)C)CC3)nc2c1F [Example 115]
[II] C#Cc1cccc2cc(O)cc(-c3ccc4c(N5CCC[C@@](C)(O)C5)nc(OC[C@@]56CCCN5C[C@H](F)C6)nc4c3F)c12 [Example 50]
Between item I and item II , which reported pIC50 is smaller? Lab note: record the label of whichever item you select. I
(I: 8.10, II: 8.52)
